The values you see were collected from patent US20170189504A1.

For each record, write down the corresponding peptide exchange yield.
target: HLA-A*24 (human); experiment: UV-ligand exchange, anti-b2m ELISA

// batch mode: one peptide exchange yield value per listed entry
1. GFFIFNERF [SEQ ID NO: 190 peptide …]
2. IFIEVFSHF [SEQ ID NO: 178 peptide …]
3. LYLKLWNLI [SEQ ID NO: 214 peptide …]

Response:
["50 to 75%", "50 to 75%", "50 to 75%"]
